Target: DLG4_2, P78352
Sequence (P78352 155-259): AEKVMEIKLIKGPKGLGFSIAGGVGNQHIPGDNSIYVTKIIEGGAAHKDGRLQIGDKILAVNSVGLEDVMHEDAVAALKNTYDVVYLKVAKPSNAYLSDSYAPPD
Assay: holdup assay
Parameters: key: below the threshold = too weak to quantify, mostly under pKd 3.1 to 4
Conditions: plain residues with an end cap or a label only (N-terminal biotin on a linker: ado-ado)
quantity measured: pKd
A bare number is all that is needed in reply.

TKDKVQETQI [LRRC4, Q9HBW1]
4.76

Recall and state the measured pKd for KIEDVEITLV [FCHSD2, O94868] .
4.2
